- Tested on: AncSZ;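 note: 11-residue human phosphosite peptides and single-mutation variants displayed on the E. coli surface, counted by deep sequencing, each peptide's frequency after selection divided by its frequency in the unselected input library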;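 note: frequency after pTyr selection over input frequency; kinase dosed for 20-30% of maximal phosphorylation in three min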
- protocolNotes: phosphorylation enrichment, bacterial display (enrichment ratio); higher = better substrate or ligand; peptides without Tyr show the background
Using phosphorylation enrichment as the sorting value, the categories are bucket A = under 0.8, bucket B = from 0.8 up to 1, bucket C = 1 and over

Solved cases (10 shown):
sequenceText	labelClass
IRKKYYRAILE [CHD7_Y1218_Q1214R]	bucket A
ITVCDYTNPCP [MYD88_Y276_T281P]	bucket C
CTTIHYNFMCF [TP53_Y234_N239Y_YF]	bucket C
CEHRGFLFLAI [TEK_Y897_Y897F_YF]	bucket B
LITLVYGCSRQ [TMPRSS6_Y290_S288L]	bucket C
KLIETYSSKNY [PLP1_Y50_F51S]	bucket A
VVKLTYNENDN [CAMKK2_Y183_A182T]	bucket B
NSAFFYKTAEE [CCT6B_Y250_G247A]	bucket B
NKVKFYIPYMN [NCR1_Y84_D87Y]	bucket B
FSQQTYCRVSN [ABCD1_Y180_Y181C]	bucket B

Bin this entry: ILGRTHYVNHE [NEDD4_Y627_Y627H]
bucket A

Into which bin does this sequence go? TTEHIYGDNFF [UBA7_Y524]
bucket A

Input RSAGKYDVYFI [MECP2_Y120_L124F] ; output its category
bucket C

Hi, small favor: classify TLQRMYGCDVG [HLA-B_Y123_S121R] by its phosphorylation enrichment when you get a moment.
bucket B

Note: place this sequence into its band. Item: SYTDPYAQPPL [KMT2D_Y2378]
bucket B

Which bin, given its phosphorylation enrichment, does FNSLLYQVPTS [CALCOCO2_Y358_P357L] occupy?
bucket C

Could you tell me which band AIKSFYAALID [RYR1_Y2426_M2423K] belongs to?
bucket B

Could you tell me which band VKPENYRRLDI [VHL_Y175] belongs to?
bucket A

For this sequence, which bin applies? QEKKGYFEDRC [GLUL_Y336_R341C]
bucket C

Record SIKDKYVTAVY [KCNH2_Y611_L615V] — which class?
bucket A

Category of DLDLTSIFPNI [PTEN_Y27_Y27S_YF] , please.
bucket B

Class? Entry: RPGSGYTKIMR [PKLR_Y564_N566K]
bucket A

Looking at KVGPGYLGSGG [RET_Y826] , which class would you pick?
bucket A

Looking at GGSSPYSRRLP [CDK13_Y351] , which class would you pick?
bucket A

Record RLLVVYPWTQK [HBG1_Y36_R41K] — which class?
bucket B

Which band does CNPRRYPVLMS [OR2T1_Y182_L180R] fall in?
bucket A

Assign a category based on measured phosphorylation enrichment for FSMGCYEISLE [HMGCL_Y198_G203E_YF] and give only the class name.
bucket C

Class for HFPFQCHRQLY [F12_Y53_Y53C] ?
bucket A

Record GKANRYFSPNF [PTEN_Y336_D331G] — which class?
bucket A

Hey, which category is VFFGSYSCPFG [NKAP_Y104_R106C_YF] in, do you know?
bucket C

Category lookup for the sequence LIFVSYDDWDY [GRIN2A_Y281_S278F]
bucket C

Classify this sequence: PLKYLYPNIDK [STAT1_Y668]
bucket B

Hi, small favor: classify EREFKYDAHNF [OAT_Y50_G51D_YF] by its phosphorylation enrichment when you get a moment.
bucket B

GET /class?item= KANEFYPVVLI [ADAMTS18_Y765_YF]
bucket C

Hey, which category is QGGRCYMMIVD [GAA_Y438_R437C] in, do you know?
bucket C

Textbook exercise: identify the category of the sequence given here, EFSNQYKATIG [RAB7A_Y37_K32E] , according to its measured value.
bucket A

GET /class?item= REETTYLPLTS [ICAM3_Y527_S525T]
bucket C

Entry GIVEDYRPTFF [ACVRL1_Y421_P424T_YF] belongs to which category?
bucket B

Which phosphorylation enrichment band matches QERPEYWDQET [HLA-A_Y83_G80R] ?
bucket C

Where these numbers come from: the supplement of paper PMC10065799
